targetEntity: IRAK4 (Homo sapiens)
Sequence (Q9NWZ3 1-460): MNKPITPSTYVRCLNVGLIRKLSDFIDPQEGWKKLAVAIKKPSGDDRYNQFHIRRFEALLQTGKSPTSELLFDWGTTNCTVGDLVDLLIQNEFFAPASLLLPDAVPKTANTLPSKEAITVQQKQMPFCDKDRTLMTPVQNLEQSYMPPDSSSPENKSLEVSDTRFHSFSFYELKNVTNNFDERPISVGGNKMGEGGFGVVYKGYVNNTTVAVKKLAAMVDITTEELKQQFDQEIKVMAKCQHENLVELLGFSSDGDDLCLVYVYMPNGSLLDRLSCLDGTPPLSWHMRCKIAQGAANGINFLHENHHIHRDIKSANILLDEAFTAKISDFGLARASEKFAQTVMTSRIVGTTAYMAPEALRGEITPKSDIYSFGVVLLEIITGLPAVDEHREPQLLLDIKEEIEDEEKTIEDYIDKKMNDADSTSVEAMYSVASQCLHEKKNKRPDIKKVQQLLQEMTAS
assayInfo: 2-hour 10 μM ATP Biochemical Assay (MesoScale Detection format; IRAK4 phosphorylation of biotin labeled IRAK1 activation loop peptide)
conditionNotes: IRAK4 MSD BIOCHEMICAL (10 μM ATP) IC50 (μM), 1 nM IRAK4, 2 hours
For each record, write down the corresponding IC50.
Numbers only, in µM.

Each compound below has a recorded value; state its IC50.
1. CCOc1cc2nc(C3CC3)cn2cc1NC(=O)c1cccc(C(F)(F)F)n1 [Example 2]
2. CCOc1cc2nc(CC)cn2cc1NC(=O)c1ccc(F)c(C(F)(F)F)n1 [Example 51]
3. CCOc1cc2nc(CC3CCOCC3)cn2cc1NC(=O)c1cccc(C(F)F)n1 [Example 151]
4. CCOc1cc2nc(C3(O)CCOCC3)cn2cc1NC(=O)c1cccc(C(F)F)n1 [Example 90]
5. CCOc1cc2nc(CC)cn2cc1NC(=O)c1ccc(Cl)cn1 [Example 46]

[0.003, 0.21, 0.001, 0.002, 0.083]

Each compound below has a recorded value; state its IC50.
1. O=C(Nc1cn2cc(C3CCOCC3)nc2cc1OC1CCOCC1)c1cccc(C(F)F)n1 [Example 185]
2. CCOc1cc2nc(CC3CCOC3)cn2cc1NC(=O)c1coc(C)n1 (stereo not drawn) [Example 159]

[0.001, 0.006]
